The reported measurements were obtained from patent US20110136842A1.

TARGET_DESC: UniProtKB Q00975
Sequence (Q00975 whole entry): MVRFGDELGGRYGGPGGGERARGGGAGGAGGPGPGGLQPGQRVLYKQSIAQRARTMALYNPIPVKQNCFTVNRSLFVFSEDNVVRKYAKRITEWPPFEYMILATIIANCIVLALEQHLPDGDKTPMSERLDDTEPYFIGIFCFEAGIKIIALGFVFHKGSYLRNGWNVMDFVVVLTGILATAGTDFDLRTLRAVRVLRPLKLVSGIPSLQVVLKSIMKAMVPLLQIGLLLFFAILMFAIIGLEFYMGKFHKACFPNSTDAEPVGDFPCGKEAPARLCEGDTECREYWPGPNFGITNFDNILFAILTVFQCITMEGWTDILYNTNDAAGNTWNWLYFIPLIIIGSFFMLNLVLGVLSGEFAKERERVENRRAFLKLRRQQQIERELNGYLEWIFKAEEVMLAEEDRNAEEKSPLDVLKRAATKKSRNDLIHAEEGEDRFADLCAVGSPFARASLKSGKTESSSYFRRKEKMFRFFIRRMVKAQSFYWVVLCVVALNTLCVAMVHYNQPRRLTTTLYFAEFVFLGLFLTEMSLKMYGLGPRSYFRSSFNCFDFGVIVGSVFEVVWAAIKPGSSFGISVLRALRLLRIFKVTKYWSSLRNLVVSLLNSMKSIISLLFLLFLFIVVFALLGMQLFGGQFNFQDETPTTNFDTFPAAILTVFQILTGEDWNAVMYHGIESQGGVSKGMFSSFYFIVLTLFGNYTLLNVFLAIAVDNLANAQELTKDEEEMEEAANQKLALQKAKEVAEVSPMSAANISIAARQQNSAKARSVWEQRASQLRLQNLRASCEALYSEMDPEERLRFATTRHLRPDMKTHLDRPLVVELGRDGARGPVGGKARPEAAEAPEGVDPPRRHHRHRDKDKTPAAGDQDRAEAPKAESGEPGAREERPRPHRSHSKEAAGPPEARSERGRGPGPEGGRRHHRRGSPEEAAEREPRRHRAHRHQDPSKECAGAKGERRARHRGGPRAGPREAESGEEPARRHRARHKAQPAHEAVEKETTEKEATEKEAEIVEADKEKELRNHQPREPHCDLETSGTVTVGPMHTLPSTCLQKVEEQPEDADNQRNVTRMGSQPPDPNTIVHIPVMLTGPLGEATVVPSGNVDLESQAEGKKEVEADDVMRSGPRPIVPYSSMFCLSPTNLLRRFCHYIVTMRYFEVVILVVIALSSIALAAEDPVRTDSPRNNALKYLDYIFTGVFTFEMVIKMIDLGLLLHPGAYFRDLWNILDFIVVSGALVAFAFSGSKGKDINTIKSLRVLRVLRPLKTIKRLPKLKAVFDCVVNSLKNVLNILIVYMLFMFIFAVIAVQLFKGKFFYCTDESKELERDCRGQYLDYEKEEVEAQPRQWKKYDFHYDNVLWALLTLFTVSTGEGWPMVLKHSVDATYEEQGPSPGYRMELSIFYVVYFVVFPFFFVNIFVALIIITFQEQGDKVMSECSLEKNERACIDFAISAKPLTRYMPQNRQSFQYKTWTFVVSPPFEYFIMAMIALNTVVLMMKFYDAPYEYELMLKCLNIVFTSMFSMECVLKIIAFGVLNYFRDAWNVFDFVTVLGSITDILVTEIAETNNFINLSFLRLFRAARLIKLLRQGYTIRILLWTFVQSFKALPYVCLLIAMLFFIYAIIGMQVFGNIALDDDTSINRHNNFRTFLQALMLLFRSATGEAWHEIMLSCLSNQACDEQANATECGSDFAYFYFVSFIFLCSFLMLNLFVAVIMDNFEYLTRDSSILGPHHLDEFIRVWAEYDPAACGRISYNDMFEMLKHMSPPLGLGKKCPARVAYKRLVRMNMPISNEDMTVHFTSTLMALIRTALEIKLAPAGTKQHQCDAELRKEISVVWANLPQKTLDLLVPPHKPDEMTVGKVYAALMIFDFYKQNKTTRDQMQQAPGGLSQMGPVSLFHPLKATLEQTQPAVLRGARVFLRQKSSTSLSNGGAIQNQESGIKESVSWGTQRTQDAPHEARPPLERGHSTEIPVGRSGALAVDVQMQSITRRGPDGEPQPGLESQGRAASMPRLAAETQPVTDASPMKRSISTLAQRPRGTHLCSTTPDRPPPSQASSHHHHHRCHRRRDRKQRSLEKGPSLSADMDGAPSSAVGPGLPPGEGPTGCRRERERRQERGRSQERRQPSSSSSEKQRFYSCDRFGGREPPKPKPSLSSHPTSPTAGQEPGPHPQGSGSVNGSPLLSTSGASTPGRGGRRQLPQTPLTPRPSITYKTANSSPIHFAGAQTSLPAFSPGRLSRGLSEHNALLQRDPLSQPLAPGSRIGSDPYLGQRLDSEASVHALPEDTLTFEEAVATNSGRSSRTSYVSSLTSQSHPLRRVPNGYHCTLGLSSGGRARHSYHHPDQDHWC
MEASUREMENT_PROTOCOL: Fluorescent assay for Cav2.2 channels using potassium depolarization to initiate channel opening
CONDITION_DETAILS: assay of Example 1 in the presence of 30 mM potassium (inactivated channel state)
pIC50: −log10 of the molar value.
MEASURED_PARAMETER: pIC50

compound="CC1(Cc2cc(F)cc(F)c2F)C(=O)NC(=O)c2ccc(-c3cccc(OCC(F)(F)F)c3)cc21 (stereo not drawn)" measured_parameter=pIC50 reported_result=6.59
compound="CC1(Cc2cc(F)cc(F)c2F)C(=O)NCc2ccc(-c3cccc(OCC(F)(F)F)c3)cc21 (stereo not drawn)" measured_parameter=pIC50 reported_result=6.64
compound="Cn1cnc(N2Cc3ccc(-c4cccc(OCC(F)(F)F)c4)cc3C(C)(Cc3cc(F)cc(F)c3F)C2=O)c1 (stereo not drawn)" measured_parameter=pIC50 reported_result=7.70
